procedure_details: BSK_3C_SRB: Viability Assessment in the BioMAP Diversity Plus: 3C Assay (AID 2283023);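 further: cells read 24 h after compound dosing; fitted both ways against DMSO so a hit may be signal rise or drop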
test_conditions: primary human endothelial cells (HUVEC)
Active and inactive are the calls of the source. How the source made its calls: active means hit-call score of the fitted dose curve at least 0.9, where 1 is the maximum; inactive means score below 0.9.
Mark one answer only. Choices: 1.0 for active, 0.0 for inactive

// return assay outcome for "CCCC[N+](CCCC)(CCCC)CCCC"
0.0

// return assay outcome for "COC(C)(C)CCC[C@H](C)C/C=C/C(C)=C/C(=O)OC(C)C"
1.0

// return assay outcome for "O=C(CCl)c1ccccc1"
1.0

// return assay outcome for "COc1ccc(CO)cc1"
0.0

// return assay outcome for O=P1(NCCCl)OCCCN1CCCl (centres undefined)
0.0

// return assay outcome for "O=c1[nH]c(Cl)c(Cl)cc1Cl"
0.0

// return assay outcome for C=CC(=O)OCC(CC)CCCC (centres undefined)
0.0

// return assay outcome for "C=CCN(CC=C)C(=O)C(Cl)Cl"
0.0

// return assay outcome for "CC(C)(c1cc(Cl)c(O)c(Cl)c1)c1cc(Cl)c(O)c(Cl)c1"
1.0

// return assay outcome for "O=C1C(Cl)=C(Cl)C(=O)C(Cl)=C1Cl"
1.0

// return assay outcome for "CCCCCCCCCCCC#N"
1.0

// return assay outcome for "O=[N+]([O-])O"
0.0

// return assay outcome for CC(C)(C)C(O)C(Oc1ccc(-c2ccccc2)cc1)n1cncn1 (centres undefined)
1.0

// return assay outcome for "CC(C)CCCCCCCOP(=O)(Oc1ccccc1)Oc1ccccc1"
1.0

----------
target_or_test_system: Transcription factor E2F1 (Homo sapiens) (UniProt Q01094)
Sequence (Q01094 whole entry, looked up): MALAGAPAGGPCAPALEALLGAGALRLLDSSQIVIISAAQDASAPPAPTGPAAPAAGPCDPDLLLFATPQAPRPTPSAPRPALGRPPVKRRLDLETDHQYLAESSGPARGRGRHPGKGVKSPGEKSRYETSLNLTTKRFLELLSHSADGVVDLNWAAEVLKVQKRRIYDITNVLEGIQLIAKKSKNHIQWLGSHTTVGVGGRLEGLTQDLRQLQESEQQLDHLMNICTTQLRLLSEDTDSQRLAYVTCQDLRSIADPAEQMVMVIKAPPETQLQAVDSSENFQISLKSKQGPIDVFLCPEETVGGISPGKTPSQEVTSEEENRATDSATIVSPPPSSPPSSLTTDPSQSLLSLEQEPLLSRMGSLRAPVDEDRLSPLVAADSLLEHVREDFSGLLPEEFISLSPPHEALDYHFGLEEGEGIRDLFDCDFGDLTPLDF
procedure_details: ATG_E2F_CIS: Attagene CIS-FACTORIAL HepG2 Assay for human E2F Transcription Factor 1 (AID 2282935)
test_conditions: HepG2 Attagene cis-reporter, E2F reporter RNA transcripts; actives raise or lower the signal
Activity calls are given as the source filed them. Rule for the calls: active = hit-call score of the fitted dose curve at least 0.9, where 1 is the maximum; inactive = score below 0.9.
Mark one answer only. Choices: Y (active), N (inactive)

// return assay outcome for "CCC(Br)(CC)C(=O)NC(N)=O"
N

// return assay outcome for "C[N+](C)(C)CC(=O)[O-]"
N

// return assay outcome for "C=C(Cl)CCl"
N

// return assay outcome for "CC(C)(O)C#N"
N

// return assay outcome for "O=P(O)(Oc1ccccc1)Oc1ccccc1"
N

// return assay outcome for "CSc1nc(N=[N+]=[N-])nc(NC(C)C)n1"
N

// return assay outcome for "CCOP(=O)(OCC)OCC"
N

// return assay outcome for CC(O)CN(CC(C)O)CC(C)O (stereo not given)
N

// return assay outcome for "CC=Cc1ccc2c(c1)OCO2"
N

// return assay outcome for "CCCCNP(N)(N)=S"
N

// return assay outcome for CC1OC(C)OC(C)O1 (stereo not given)
N

// return assay outcome for "CC(C)COP(=O)(OCC(C)C)OCC(C)C"
N

// return assay outcome for "CCOC(=O)COc1ccc(Cl)cc1Cl"
N

// return assay outcome for "O=[N+]([O-])O"
N

// return assay outcome for "c1ccc2c(c1)CCCC2"
N

// return assay outcome for "CCCCOC(=O)CCC(=O)OCCCC"
N

// return assay outcome for "COC(=O)c1ccccc1S(=O)(=O)NC(=O)Nc1nc(C)cc(C)n1"
N

// return assay outcome for "Cl/C=C\CCl"
N

// return assay outcome for "CN(C)CCC#N"
N

// return assay outcome for "CC[N+](=O)[O-]"
N

// return assay outcome for "Nc1cc(Cl)cc(Cl)c1"
N

// return assay outcome for "C[C@]12CC[C@H](O)C[C@H]1CC[C@@H]1[C@@H]2C[C@@H](O)[C@]2(C)[C@@H](C3=CC(=O)OC3)CC[C@]12O"
N

// return assay outcome for "CCCCCCCCCCCCCCCC[N+](C)(C)C"
Y

// return assay outcome for "O=C1C=CC(=O)C=C1"
N

// return assay outcome for "COC(C)(C)CCC[C@H](C)C/C=C/C(C)=C/C(=O)OC(C)C"
N

// return assay outcome for "CCC(=O)c1ccc(Cl)cc1"
N

// return assay outcome for CCC(C)c1cc([N+](=O)[O-])cc([N+](=O)[O-])c1OC(=O)C=C(C)C (stereo not given)
Y

// return assay outcome for "Oc1ccc(C2(c3ccc(O)cc3)c3ccccc3-c3ccccc32)cc1"
Y

// return assay outcome for "O=C(O)C(Br)Br"
N

// return assay outcome for "Nc1ccc(Cl)c(Cl)c1"
N

// return assay outcome for "N#CCCCCC#N"
N

// return assay outcome for "CC(C)C(=O)Cl"
N

// return assay outcome for "CN1C[C@H](C(=O)N[C@]2(C)O[C@@]3(O)[C@@H]4CCCN4C(=O)[C@H](Cc4ccccc4)N3C2=O)C=C2c3cccc4[nH]cc(c34)C[C@H]21"
N

// return assay outcome for "CCCCCc1cc(O)cc(O)c1"
N

// return assay outcome for CCCCCCC1CCOC1=O (stereo not given)
N

// return assay outcome for CC(=O)c1cc2c(cc1C)C(C)(C)C(C)CC2(C)C (stereo not given)
N

// return assay outcome for "CCOC(=O)NC(=S)Nc1ccccc1NC(=S)NC(=O)OCC"
N

// return assay outcome for "O=c1[nH]c(Cl)c(Cl)cc1Cl"
N

// return assay outcome for "O=C(NC(=O)c1c(F)cccc1F)Nc1ccc(Oc2ccc(C(F)(F)F)cc2Cl)cc1F"
N

// return assay outcome for "O=C(O)COc1ccccc1"
N

// return assay outcome for "ClCC(Cl)Cl"
N

// return assay outcome for CNC(=N[N+](=O)[O-])NCC1CCOC1 (stereo not given)
N

// return assay outcome for "COCC(=O)N(c1c(C)cccc1C)N1CCOC1=O"
N

// return assay outcome for "C=CC(=O)OCCCCOC(=O)C=C"
N

// return assay outcome for "O=C(CCN1CC1)OCC(CO)(COC(=O)CCN1CC1)COC(=O)CCN1CC1"
N

// return assay outcome for "CC(=O)/C=C/c1ccccc1"
N

// return assay outcome for "C=CCO"
N

// return assay outcome for "CN(N=O)c1ccccc1"
N

// return assay outcome for "Nc1ccccc1C(=O)OCCc1ccccc1"
N

// return assay outcome for "N#Cc1cc(I)c(O)c(I)c1"
N

// return assay outcome for "CCCOC(=O)c1ccccc1C(=O)OCCC"
N

// return assay outcome for "NNc1ccccc1"
N

// return assay outcome for "C#CC1(O)CCCCC1"
N

// return assay outcome for "Cc1cc(C)c(C2=C(OC(=O)CC(C)(C)C)C3(CCCC3)OC2=O)c(C)c1"
N

// return assay outcome for "Cc1ncc(C[n+]2csc(CCO)c2C)c(N)n1"
N

// return assay outcome for CCOC(=O)C1OC1(C)c1ccccc1 (stereo not given)
N

// return assay outcome for "[CH3][Sn]([CH3])([Cl])[Cl]"
N

// return assay outcome for O=P1(NCCCl)OCCCN1CCCl (stereo not given)
N

// return assay outcome for "O=[N+]([O-])c1ccc(Cl)cc1"
N

// return assay outcome for C=CC(=O)OCC(CC)CCCC (stereo not given)
N
